// reported normalized growth per item
Test: chemical genetic growth profiling, strain panel (AID 1159580);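 also: tested at 20 µM; growth read once vehicle control cultures reached saturation at 30 °C; 1 = growth at the plate median or of vehicle wells; lower values mean less growth of the strain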
Settings: S. cerevisiae deletion strains, growth OD, locus YDL035C, strain GPR1, stronger effect = lower value
About 2,000 (36%) of roughly 5,500 compounds were called active. Not shown: some 18% with an inconclusive outcome. This is one part of the list.
Write the value as a bare number.

// below: answered compounds
# compound, result-value
measured = [
    ("CCn1cc(C(=O)O)c(=O)c2cc(F)c(N3CCNC(C)C3)c(F)c21 (stereo not given)", 0.978),
    ("CN1C2CCC1CC(OC(c1ccccc1)c1ccccc1N)C2 (stereo not given)", 1.01),
    ("COc1ccc2c(c1)OC/C(=C/c1ccc(OC)c(OC)c1)C2=O", 0.978),
]

*Q* Please look up its normalized growth: COc1ccc(OC)c(C(O)CNC(=O)CN)c1 (stereo not given)
*A* 0.986

*Q* Request the reported normalized growth associated with CN(C)CCOC(c1ccc(Cl)cc1)c1ccccn1 (stereo not given)
*A* 0.978

----------
Known normalized growth of a selection of compounds
Assay: chemical genetic growth profiling, strain panel (AID 1159580)
Details: S. cerevisiae deletion strains, growth OD, locus YKR091W, strain srl3, stronger effect = lower value
Screen size: about 5,500 compounds; about 2,000 (36%) were called active. Another 18% or so got no clear call; they are omitted. Some of the results follow.
No unit in the answer, please; the number alone is enough.

# compound, normalized growth
rows = [
    ("C=C1CCC2[C@](C)(CO)[C@H](O)CC[C@@]2(C)[C@@H]1C/C=C1/C(=O)OC[C@H]1O (some centres undefined)", 0.979),
]

*Q* Could you share which normalized growth value was measured for CC(=O)O[C@H]1C[C@@H](OC(C)=O)C(C)(C)C2CC(=O)[C@]3(C)C(CC[C@@]4(C)[C@H](C(=O)O)OC(=O)C5OC543)[C@]21C (some centres undefined) ?
*A* 0.978

*Q* Recorded normalized growth of CC[C@]1(O)CC2CN(CCc3c([nH]c4ccccc34)[C@@](C(=O)OC)(c3cc4c(cc3OC)N(C)[C@H]3[C@@](O)(C(=O)OC)[C@H](OC(C)=O)[C@]5(CC)C=CCN6CC[C@]43[C@@H]65)C2)C1 (some centres undefined) , please.
*A* 0.98

*Q* Reported normalized growth for OCC(O)CN1CCN(c2ccccc2)CC1 (centres undefined) : what is it?
*A* 0.982

----------
Here, each record is paired with measured normalized growth data.
Assay: chemical genetic growth profiling, strain panel (AID 1159580)
Conditions: S. cerevisiae deletion strains, growth OD, locus YLR330W, strain CHS5, stronger effect = lower value
The campaign covered roughly 5,500 compounds. About 2,000 (36%) were called active. Not shown: some 18% with an inconclusive outcome. The list shows a part of the results.
Returns: the value as a bare number; no unit string appended.

# molecule, normalized growth
data = [
    ("COc1ccc(-c2coc3cc(O)ccc3c2=O)cc1", 0.896),
    ("CNCCC(Oc1ccc(C(F)(F)F)cc1)c1ccccc1 (stereo not drawn)", 1.01),
    ("CC(C)NCC(O)COc1cccc2[nH]ccc12 (stereo not drawn)", 0.978),
    ("COc1ccc(C(=O)CC(=O)O)c2c1C=CC(C)(C)O2", 0.995),
    ("Oc1cc(O)c2c(c1)O[C@H](c1ccc(O)c(O)c1)[C@H](O)C2", 1.01),
]

*Q* Quick check: normalized growth of CC1(C)CCC[C@@]2(C)C1[C@@H](O)C[C@]1(C)C2CC[C@@H]2[C@@]3(C)CC[C@H](C(C)(C)O)[C@@H]3CC[C@@]21C (stereo partly drawn) ?
*A* 0.983

*Q* Given C=C1CCC2[C@](C)(CO)[C@H](O)CC[C@@]2(C)[C@@H]1C/C=C1/C(=O)OC[C@H]1O (stereo partly drawn) , state its recorded normalized growth.
*A* 1.02

*Q* Form field: reported normalized growth of CC1(C)S[C@@H]2[C@H](NC(=O)[C@H](N)c3ccccc3)C(=O)N2[C@H]1C(=O)O
*A* 1.01

----------
Assay: chemical genetic growth profiling, strain panel (AID 1159580)
Conditions: S. cerevisiae deletion strains, growth OD, locus YLR262C, strain YPT6 (second series), stronger effect = lower value
In all, about 5,500 compounds went through this assay and about 2,000 (36%) were called active. Not shown: some 18% with an inconclusive outcome. The list shows a part of the results.
The reader will find reported normalized growth values listed item by item below.
Form rule: numeric answer, no unit written next to it.

# compound, normalized growth
rows = [
    ("N=c1ccn2c(n1)OC1C(O)C(CO)OC12 (configuration not stated)", 1.02),
]

*Q* Reported normalized growth for COC(=O)C1=COC(OC2OC(CO)C(O)C(O)C2O)C2C(C)CC(=O)C12 (configuration not stated) : what is it?
*A* 1.05

*Q* Quick one: normalized growth of CC[C@@H]1C=C/C=C/C[C@H](C)[C@@H](O)[C@](C)(O)C(=O)[C@H](C)[C@@H](O)[C@H](C)C(=O)[C@H](C)[C@@H](O)[C@H](C)/C=C/C(=O)O[C@H]2[C@@H](C)[C@@H](CC1)O[C@@]1(CC[C@@H](C)[C@@H](C[C@H](C)O)O1)[C@@H]2C ?
*A* 0.852

*Q* Value lookup for normalized growth; key = Cn1c(=O)c2c(ncn2CC(O)CO)n(C)c1=O (configuration not stated)
*A* 0.991

*Q* Given the compound C=CC[C@]1(O)CCC2C3CCC4=CC(=O)CCC4=C3C=C[C@@]21C (some centres not stated) , what is its reported normalized growth?
*A* 0.804

*Q* Consider the compound shown here: COc1cc2nc(N(C)CCCNC(=O)C3CCCO3)nc(N)c2cc1OC (configuration not stated) What is its recorded normalized growth?
*A* 0.981

*Q* normalized growth for C#CCCCCCCCCCCCc1ccco1 ?
*A* 0.917

----------
Test: chemical genetic growth profiling, strain panel (AID 1159580);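 also: tested at 20 µM; growth read once vehicle control cultures reached saturation at 30 °C; 1 = growth at the plate median or of vehicle wells; lower values mean less growth of the strain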
Settings: S. cerevisiae deletion strains, growth OD, locus YML032C, strain rad52, stronger effect = lower value
Hit rate of the full screen: of about 5,500 compounds, about 2,000 (36%) were called active. About 18% were inconclusive and are not listed. The list shows a part of the results.
measured-attribute: normalized growth
Enter a number only.

Sample answers from the record:
# molecule, result-value
data = [
    ("CNCCC(Oc1ccc(C(F)(F)F)cc1)c1ccccc1 (centres undefined)", 0.998),
    ("O=C1NCC2(CCN(CCc3ccccc3)CC2)O1", 1.02),
    ("O=c1cccc2ccc(O)c(O)c2c1O", 0.785),
]

Then there is this molecule:
*Q* So what does the record say about normalized growth for Cc1[nH]c2ccccc2c1CN(C)C ?
*A* 0.981

----------
Assay: chemical genetic growth profiling, strain panel (AID 1159580);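 also: tested at 20 µM; growth read once vehicle control cultures reached saturation at 30 °C; 1 = growth at the plate median or of vehicle wells; lower values mean less growth of the strain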
Conditions: S. cerevisiae deletion strains, growth OD, locus YKR001C, strain vps1, stronger effect = lower value
Hit rate of the full screen: of about 5,500 compounds, about 2,000 (36%) were called active. About 18% were inconclusive and are not listed. Some of the results follow.
measured-attribute: normalized growth
No unit in the answer, only the number.

Please review the following examples before continuing.
# compound, result-value
rows = [
    ("NCCCS(=O)(=O)O", 0.994),
    ("COc1ccccc1-c1coc2cc(O)ccc2c1=O", 0.979),
    ("COC(=O)C[C@H]1C2(C)CC34OC5(C)O[C@@]6([C@H](OC(C)=O)C(OC(C)=O)[C@]7(C)C(/C(=C(/O)C(C)C)C(=O)O[C@H]7c7ccoc7)[C@@]6(O5)[C@H](OC(C)=O)[C@@]3(O)C2OC(=O)C(C)C)[C@]14C (stereo partly drawn)", 1),
    ("C=C[C@@](C)(O)CCC1C(=C)C[C@H](OC(C)=O)C2C(C)(C)CCCC12C (stereo partly drawn)", 0.993),
    ("CCC(C)C(=O)O[C@@H]1C[C@@]2(C)[C@H](c3ccoc3)OC(=O)CC23OC2(C)OC34[C@H](OC(=O)C(C)C)[C@@]3(O)[C@@H](OC(=O)C5(C)OC5C)[C@@]5(C)C[C@]3(O)[C@@](C)([C@H]5CC(=O)OC)C14O2 (stereo partly drawn)", 0.996),
]

*Q* Which value of normalized growth has been reported for C=C[C@@](C)(O)CCC1C(=C)CCC2[C@@](C)(CO)CCC[C@]12C (stereo partly drawn) in the records?
*A* 1

*Q* Entry COc1cc2nc(N(C)CCCNC(=O)C3CCCO3)nc(N)c2cc1OC (stereo not drawn) : reported normalized growth = ?
*A* 1.01

*Q* Would you mind telling me what normalized growth value was observed for C[C@@H]1CC(Cl)CC[C@H]1C(=O)OC(C)(C)C (stereo partly drawn) ?
*A* 1.01

----------
Experiment: chemical genetic growth profiling, strain panel (AID 1159580);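 also: tested at 20 µM; growth read once vehicle control cultures reached saturation at 30 °C; 1 = growth at the plate median or of vehicle wells; lower values mean less growth of the strain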
Conditions: S. cerevisiae deletion strains, growth OD, locus YDL101C, strain DUN1, stronger effect = lower value
Out of some 5,500 compounds screened, about 2,000 (36%) were called active. Inconclusive results (about 18%) are left out. Some of the results follow.
measured-attribute: normalized growth
Form field (numeric): enter value without unit.

# compound, normalized growth
rows = [
    ("CCC[C@H](N[C@@H](C)C(=O)N1[C@H](C(=O)O)C[C@@H]2CCCC[C@@H]21)C(=O)OCC", 1.01),
    ("O=[N+]([O-])c1ccc(N2CCCCC2)nc1N1CCCCC1", 0.978),
    ("COC(=O)C[C@H]1C2(C)CC34OC5(C)O[C@@]6([C@H](OC(C)=O)C(OC(C)=O)[C@]7(C)C(/C(=C(/O)C(C)C)C(=O)O[C@H]7c7ccoc7)[C@@]6(O5)[C@H](OC(C)=O)[C@@]3(O)C2OC(=O)C(C)C)[C@]14C (some centres undefined)", 1),
]

In the following, a different compound is considered.
*Q* Using the record for C#CCN(C)Cc1ccccc1 , report its normalized growth.
*A* 1.01
